# Tested on: 873145-292-R-J1-PDC complex spheroid viability;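 note: spheroids exposed to compounds for 7 days before viability readout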
# assayOverview: Anticancer human tumor 873145-292-R-J1-PDC patient-derived renal clear cell carcinoma cell line growth inhibition [POLQ]
# measurementConditions: curve of first compound; second compound 1 µM
pIC50: −log10 of the molar value.
readoutKind: pIC50

Query: May I ask what pIC50 has been recorded for Cn1ncnc1[C@H]1c2n[nH]c(=O)c3cc(F)cc(c23)N[C@@H]1c1ccc(F)cc1 + COC1C(OC(N)=O)C(O)C(Oc2ccc3c(O)c(NC(=O)c4ccc(O)c(CC=C(C)C)c4)c(=O)oc3c2C)OC1(C)C ?
Reply: < 7.00

Query: May I ask what pIC50 has been recorded for CNCc1ccc(-c2[nH]c3cc(F)cc4c3c2CCNC4=O)cc1 + COC1C(OC(N)=O)C(O)C(Oc2ccc3c(O)c(NC(=O)c4ccc(O)c(CC=C(C)C)c4)c(=O)oc3c2C)OC1(C)C ?
Reply: < 5.00

Query: May I ask what pIC50 has been recorded for COc1cccc(OCCCN)c1-c1cc(Nc2cnc(C#N)cn2)n[nH]1 + Nc1ccc(C#CCN(C(=O)Cc2ncc(C(F)(F)F)cc2C(F)(F)F)c2ccc(F)cc2)nn1 ?
Reply: < 6.00

Query: May I ask what pIC50 has been recorded for CC[C@@]1(O)C(=O)OCc2c1cc1n(c2=O)Cc2cc3c(CN(C)C)c(O)ccc3nc2-1 + Nc1ccc(C#CCN(C(=O)Cc2ncc(C(F)(F)F)cc2C(F)(F)F)c2ccc(F)cc2)nn1 ?
Reply: < 7.00

Query: May I ask what pIC50 has been recorded for O=C(c1cc(Cc2n[nH]c(=O)c3ccccc23)ccc1F)N1CCN(C(=O)C2CC2)CC1 + Nc1ccc(C#CCN(C(=O)Cc2ncc(C(F)(F)F)cc2C(F)(F)F)c2ccc(F)cc2)nn1 ?
Reply: < 5.00

Query: May I ask what pIC50 has been recorded for COc1ccc([C@@H](O)c2cc(-c3ncnc4cc(N5CCOCC5)ccc34)c(F)cc2Cl)nn1 + COC1C(OC(N)=O)C(O)C(Oc2ccc3c(O)c(NC(=O)c4ccc(O)c(CC=C(C)C)c4)c(=O)oc3c2C)OC1(C)C ?
Reply: 5.40

Query: May I ask what pIC50 has been recorded for O=c1[nH]cc(F)c(=O)[nH]1 + Cc1cccc(N(C)C(=O)C2C(O)CCN2c2nc(C)cc(C(F)(F)F)c2C#N)c1 ?
Reply: < 5.00

Query: May I ask what pIC50 has been recorded for C=CCn1c(=O)c2cnc(Nc3ccc(N4CCN(C)CC4)cc3)nc2n1-c1cccc(C(C)(C)O)n1 + Nc1ccc(C#CCN(C(=O)Cc2ncc(C(F)(F)F)cc2C(F)(F)F)c2ccc(F)cc2)nn1 ?
Reply: < 6.00

Query: May I ask what pIC50 has been recorded for O=C(c1cc(Cc2n[nH]c(=O)c3ccccc23)ccc1F)N1CCN(C(=O)C2CC2)CC1 + Cc1cccc(N(C)C(=O)C2C(O)CCN2c2nc(C)cc(C(F)(F)F)c2C#N)c1 ?
Reply: < 5.00

Query: May I ask what pIC50 has been recorded for CC1COCCN1c1cc(C2(O)CC3CCC(C2)O3)c2cnn(-c3ccn[nH]3)c2n1 (stereo not given) + Nc1ccc(C#CCN(C(=O)Cc2ncc(C(F)(F)F)cc2C(F)(F)F)c2ccc(F)cc2)nn1 ?
Reply: 5.77

Query: May I ask what pIC50 has been recorded for CC1COCCN1c1cc(C2(S(C)(=N)=O)CC2)nc(-c2ccnc3[nH]ccc23)n1 (stereo not given) + Cc1cccc(N(C)C(=O)C2C(O)CCN2c2nc(C)cc(C(F)(F)F)c2C#N)c1 ?
Reply: < 5.00

Query: May I ask what pIC50 has been recorded for COc1cc2cc(C(=O)CCC(=O)O)sc2cc1OC + COC1C(OC(N)=O)C(O)C(Oc2ccc3c(O)c(NC(=O)c4ccc(O)c(CC=C(C)C)c4)c(=O)oc3c2C)OC1(C)C ?
Reply: < 5.00

Query: May I ask what pIC50 has been recorded for CCc1cc2c(N3CCc4c(cc(Cn5ccnc5)cc4-c4cn(C)nc4C(F)(F)F)C3=O)ccnc2c(OC)n1 + Cc1cccc(N(C)C(=O)C2C(O)CCN2c2nc(C)cc(C(F)(F)F)c2C#N)c1 ?
Reply: < 5.00

Query: May I ask what pIC50 has been recorded for CCc1cc2c(N3CCc4c(cc(Cn5ccnc5)cc4-c4cn(C)nc4C(F)(F)F)C3=O)cc(C)nc2c(OC)n1 + COC1C(OC(N)=O)C(O)C(Oc2ccc3c(O)c(NC(=O)c4ccc(O)c(CC=C(C)C)c4)c(=O)oc3c2C)OC1(C)C ?
Reply: < 5.00

Query: May I ask what pIC50 has been recorded for COc1cc(C2c3cc4c(cc3C(OC3OC5COC(C)OC5C(O)C3O)C3COC(=O)C23)OCO4)cc(OC)c1O (stereo not given) + Cc1cccc(N(C)C(=O)C2C(O)CCN2c2nc(C)cc(C(F)(F)F)c2C#N)c1 ?
Reply: 5.05

Query: May I ask what pIC50 has been recorded for CCc1cc2c(N3CCc4c(cc(Cn5ccnc5)cc4-c4cn(C)nc4C(F)(F)F)C3=O)ccnc2c(OC)n1 + COC1C(OC(N)=O)C(O)C(Oc2ccc3c(O)c(NC(=O)c4ccc(O)c(CC=C(C)C)c4)c(=O)oc3c2C)OC1(C)C ?
Reply: < 5.00

Query: May I ask what pIC50 has been recorded for C=CCn1c(=O)c2cnc(Nc3ccc(N4CCN(C)CC4)cc3)nc2n1-c1cccc(C(C)(C)O)n1 + COC1C(OC(N)=O)C(O)C(Oc2ccc3c(O)c(NC(=O)c4ccc(O)c(CC=C(C)C)c4)c(=O)oc3c2C)OC1(C)C ?
Reply: < 6.00

Query: May I ask what pIC50 has been recorded for C=CC(=O)N1CCN(c2nc(=O)n(-c3c(C)ccnc3C(C)C)c3nc(-c4c(O)cccc4F)c(F)cc23)C(C)C1 (stereo not given) + COC1C(OC(N)=O)C(O)C(Oc2ccc3c(O)c(NC(=O)c4ccc(O)c(CC=C(C)C)c4)c(=O)oc3c2C)OC1(C)C ?
Reply: < 5.00

Query: May I ask what pIC50 has been recorded for CCc1c2c(nc3ccc(O)cc13)-c1cc3c(c(=O)n1C2)COC(=O)[C@]3(O)CC + Cc1cccc(N(C)C(=O)C2C(O)CCN2c2nc(C)cc(C(F)(F)F)c2C#N)c1 ?
Reply: 7.19

Query: May I ask what pIC50 has been recorded for CC(=O)O[C@H]1C(=O)[C@@]2(C)[C@H]([C@H](OC(=O)c3ccccc3)[C@]3(O)C[C@H](OC(=O)[C@H](O)[C@@H](NC(=O)c4ccccc4)c4ccccc4)C(C)=C1C3(C)C)[C@]1(OC(C)=O)CO[C@@H]1C[C@@H]2O + Nc1ccc(C#CCN(C(=O)Cc2ncc(C(F)(F)F)cc2C(F)(F)F)c2ccc(F)cc2)nn1 ?
Reply: < 5.52
